Catalogue of pest or weed control at 200 ppm values
Test system: Tetranychus urticae (Two-spotted spider mite)
ASSAY SUMMARY: Tetranychus urticae (Two-spotted spider mite) mortality, sprayed bean leaf discs
Type: in vivo
SETUP CONDITIONS: foliar, 192 h, 200 ppm spray on bean leaf discs, mixed ages, egg, larval and adult mortality after 8 days

Answered examples (2):
Lab request: please report pest or weed control at 200 ppm under test system Tetranychus urticae (Two-spotted spider mite) for COc1c(NC(=O)c2ccc(F)cc2Cl)cccc1C(=O)Nc1c(Br)cc(C(F)(C(F)(F)F)C(F)(F)F)cc1OC(F)F ≥ 80%

# get_value(readout= pest or weed control at 200 ppm, system= Tetranychus urticae (Two-spotted spider mite)) for O=C(Nc1cccc(C(=O)Nc2c(Cl)cc(C(F)(C(F)(F)F)C(F)(F)F)cc2OC(F)F)c1F)c1ccc(OC(F)(F)F)cc1 ≥ 80%

Then there is this compound:
Short answer please: pest or weed control at 200 ppm, Tetranychus urticae (Two-spotted spider mite), entry O=C(Nc1cccc(C(=O)Nc2c(Cl)cc(C(F)(C(F)(F)F)C(F)(F)F)cc2OC(F)F)c1F)c1ccc(C(F)(F)F)cc1 ≥ 80%

----------
Tested on: Plutella xylostella (Diamond back moth)
ASSAY SUMMARY: Plutella xylostella (Diamond back moth) larval mortality, artificial diet in 24-well MTP
Assay type: in vivo
SETUP CONDITIONS: 144 h, application rate 200 ppm (concentration in well 18 ppm), L2 larvae, larval mortality after 6 days
Below, each entry is listed with its recorded pest or weed control at 200 ppm.

Here is how some molecules turned out for pest or weed control at 200 ppm.
Requested field: pest or weed control at 200 ppm. Item: COc1c(NC(=O)c2ccc(C(F)(F)F)cc2)cccc1C(=O)Nc1c(Cl)cc(C(F)(C(F)(F)F)C(F)(F)F)cc1OC(F)F ≥ 80%

// returns reported pest or weed control at 200 ppm for input N#Cc1ccc(C(=O)Nc2cccc(C(=O)Nc3c(Cl)cc(C(F)(C(F)(F)F)C(F)(F)F)cc3OC(F)F)c2F)cc1 ≥ 80%

***
Tell me the measured pest or weed control at 200 ppm of O=C(Nc1cccc(C(=O)Nc2c(Cl)cc(C(F)(C(F)(F)F)C(F)(F)F)cc2OC(F)F)c1F)c1ccc(OC(F)(F)F)cc1 , please. ≥ 80%

----------
In this section, each of the molecules is paired with its reported pest or weed control at 200 ppm.
Tested on: Plutella xylostella (Diamond back moth)
ASSAY SUMMARY: Plutella xylostella (Diamond back moth) larval mortality, artificial diet in 24-well MTP
Format: in vivo
SETUP CONDITIONS: 144 h, application rate 200 ppm (concentration in well 18 ppm), L2 larvae, larval mortality after 6 days

Previously resolved entries follow.
So what pest or weed control at 200 ppm did COc1c(NC(=O)c2ccc([N+](=O)[O-])cc2Cl)cccc1C(=O)Nc1c(Br)cc(C(F)(C(F)(F)F)C(F)(F)F)cc1OC(F)F get with Plutella xylostella (Diamond back moth)? ≥ 80%

pest or weed control at 200 ppm of O=C(Nc1cccc(C(=O)Nc2c(Cl)cc(C(F)(C(F)(F)F)C(F)(F)F)cc2OC(F)F)c1F)c1cc(Cl)ccc1F on Plutella xylostella (Diamond back moth)? ≥ 80%

Please state recorded pest or weed control at 200 ppm (tested on Plutella xylostella (Diamond back moth)) of CCN(C(=O)c1ccc(C#N)cc1)c1cccc(C(=O)Nc2c(Cl)cc(C(F)(C(F)(F)F)C(F)(F)F)cc2OC(F)F)c1OC ≥ 80%

Which measured pest or weed control at 200 ppm belongs to CCN(C(=O)c1ccccc1OC)c1cccc(C(=O)Nc2c(Cl)cc(C(F)(C(F)(F)F)C(F)(F)F)cc2OC(F)F)c1OC , tested on Plutella xylostella (Diamond back moth)? ≥ 80%

What measured pest or weed control at 200 ppm is associated with CCN(C(=O)c1ccc(F)cc1Cl)c1cccc(C(=O)Nc2c(Cl)cc(C(F)(C(F)(F)F)C(F)(F)F)cc2OC(F)F)c1F on Plutella xylostella (Diamond back moth)? ≥ 80%

Further cases:
For the record CCN(C(=O)c1ccc([N+](=O)[O-])cc1)c1cccc(C(=O)Nc2c(Br)cc(C(F)(C(F)(F)F)C(F)(F)F)cc2OC(F)F)c1OC , what value of pest or weed control at 200 ppm is listed for Plutella xylostella (Diamond back moth)? ≥ 80%

Entry O=C(Nc1cccc(C(=O)Nc2c(Br)cc(C(F)(C(F)(F)F)C(F)(F)F)cc2OC(F)F)c1F)c1ccccc1C(F)(F)F , system Plutella xylostella (Diamond back moth): what pest or weed control at 200 ppm was measured? ≥ 80%
